Experimental System: Metallo-beta-lactamase type 2 (Bacteria)
Method: Inhibition of NDM1 (unknown origin) expressed in Escherichia coli BL21(DE3) assessed as substrate hydrolysis at 100 uM by UV-Vis spectrophotometric analysis relative to control
Readout Name: inhibition

>  <Smiles String>
Oc1ccc(CCn2c(-c3cc(-c4ccccc4)ccc3O)n[nH]c2=S)c(O)c1

>  <Observed>
38%

$$$$

For each listed entry, give its inhibition.
1. Cc1ccccc1-c1n[nH]c(=S)n1CCc1ccc(O)cc1
2. COc1ccc(O)c(-c2n[nH]c(=S)n2CCc2ccc(O)cc2)c1
3. Cc1ccccc1CCn1c(-c2ccccc2)n[nH]c1=S

a:
["< 30%", "< 30%", "< 30%"]
